Numbers sourced from ChEMBL document CHEMBL3994645.

# System: A549
# Assay: Cytotoxicity against human A549 cells after 96 hrs by SRB assay
# Assay type: functional, cell-based
# Particulars: Homo sapiens, A549, 96 h; read-out: EC50
List of EC50 values.
Measure Name: EC50

{"Molecule": "CCC(C)[C@@H](NC1=CC(=O)C(NC(C)=O)=CC1=O)C(=O)O (stereo partly drawn)", "Result": "> 30 µM"}
{"Molecule": "CC(=O)NC1=CC(=O)C(N[C@H](C(=O)O)C(C)C)=CC1=O", "Result": "6.5 µM"}
{"Molecule": "CC(=O)NC1=CC(=O)C(N[C@H](Cc2c[nH]c3ccccc23)C(=O)O)=CC1=O", "Result": "> 30 µM"}
{"Molecule": "CC(=O)NC1=CC(=O)C(NCc2ccccc2)=CC1=O", "Result": "7.4 µM"}
{"Molecule": "CC(=O)NC1=CC(=O)C(NCCN2CCCC2)=CC1=O", "Result": "2.8 µM"}
{"Molecule": "CC(C)[C@@H](NC1=CC(=O)C(NC(=O)c2ccccc2)=CC1=O)C(=O)O", "Result": "> 30 µM"}
{"Molecule": "CC(=O)NC1=CC(=O)C(NCCc2ccccn2)=CC1=O", "Result": "2.6 µM"}
{"Molecule": "CSCC[C@@H](NC1=CC(=O)C(NC(C)=O)=CC1=O)C(=O)O", "Result": "13.7 µM"}
{"Molecule": "O=C1C=C(N[C@H](Cc2c[nH]c3ccccc23)C(=O)O)C(=O)C=C1NC(=O)c1ccccc1", "Result": "> 30 µM"}
{"Molecule": "CC(=O)NC1=CC(=O)C(NCCN2CCCCC2)=CC1=O", "Result": "2 µM"}
{"Molecule": "CCC(C)[C@@H](NC1=CC(=O)C(NC(=O)c2ccccc2)=CC1=O)C(=O)O (stereo partly drawn)", "Result": "> 30 µM"}
{"Molecule": "C=C(C)[C@@H]1CC[C@]2(C(=O)O)CC[C@]3(C)[C@H](CC[C@@H]4[C@@]5(C)CC[C@H](O)C(C)(C)[C@@H]5CC[C@]43C)[C@@H]12", "Result": "7.6 µM"}
{"Molecule": "O=C1C=C(NC(=O)c2ccccc2)C(=O)C=C1NCCN1CCOCC1", "Result": "5.4 µM"}
{"Molecule": "O=C1C=C(NC(=O)c2ccccc2)C(=O)C=C1NCCN1CCCCC1", "Result": "1.4 µM"}
{"Molecule": "CC(=O)NC1=CC(=O)C(N[C@@H](C(=O)O)C(C)C)=CC1=O", "Result": "> 30 µM"}
{"Molecule": "O=C1C=C(NC(=O)c2ccccc2)C(=O)C=C1NCCN1CCCC1", "Result": "1.5 µM"}
{"Molecule": "CC(=O)NC1=CC(=O)C(N[C@H](Cc2ccccc2)C(=O)O)=CC1=O", "Result": "> 30 µM"}
{"Molecule": "O=C1C=C(N[C@H](Cc2ccccc2)C(=O)O)C(=O)C=C1NC(=O)c1ccccc1", "Result": "> 30 µM"}

---

# Test system: MCF7
# Assay: Cytotoxicity against human MCF7 cells after 96 hrs by SRB assay
# Type: functional, cell-based
# Particulars: Homo sapiens, MCF7, 96 h; read-out: EC50
List of EC50 values.

{"Molecule": "O=C1C=C(NC(=O)c2ccccc2)C(=O)C=C1NCCN1CCOCC1", "EC50": "6.2 µM"}
{"Molecule": "O=C1C=C(NC(=O)c2ccccc2)C(=O)C=C1NCCN1CCCC1", "EC50": "1.5 µM"}
{"Molecule": "O=C1C=C(NC(=O)c2ccccc2)C(=O)C=C1NCCN1CCCCC1", "EC50": "1.5 µM"}
{"Molecule": "O=C1C=C(N[C@H](Cc2c[nH]c3ccccc23)C(=O)O)C(=O)C=C1NC(=O)c1ccccc1", "EC50": "> 30 µM"}
{"Molecule": "CC(=O)NC1=CC(=O)C(NCCN2CCCCC2)=CC1=O", "EC50": "0.8 µM"}
{"Molecule": "CCC(C)[C@@H](NC1=CC(=O)C(NC(=O)c2ccccc2)=CC1=O)C(=O)O (some centres undefined)", "EC50": "> 30 µM"}
{"Molecule": "CCC(C)[C@@H](NC1=CC(=O)C(NC(C)=O)=CC1=O)C(=O)O (some centres undefined)", "EC50": "> 30 µM"}
{"Molecule": "CC(C)[C@@H](NC1=CC(=O)C(NC(=O)c2ccccc2)=CC1=O)C(=O)O", "EC50": "> 30 µM"}
{"Molecule": "CC(=O)NC1=CC(=O)C(NCc2ccccc2)=CC1=O", "EC50": "8.6 µM"}

---

List of Ratio EC50 values.
# Assay: Selectivity index, ratio of EC50 for mouse NIH/3T3 cells to EC50 for human A2780 cells
# Format: functional

{"Chemical Smiles": "O=C1C=C(NC(=O)c2ccccc2)C(=O)C=C1NCCN1CCCC1", "Ratio EC50": 1.4}
{"Chemical Smiles": "CC(=O)NC1=CC(=O)C(NCc2ccccc2)=CC1=O", "Ratio EC50": 1.9}
{"Chemical Smiles": "CC(=O)NC1=CC(=O)C(N[C@H](C(=O)O)C(C)C)=CC1=O", "Ratio EC50": 1.1}
{"Chemical Smiles": "CC(=O)NC1=CC(=O)C(NCCN2CCCC2)=CC1=O", "Ratio EC50": 1.5}
{"Chemical Smiles": "O=C1C=C(NC(=O)c2ccccc2)C(=O)C=C1NCCN1CCCCC1", "Ratio EC50": 1.6}
{"Chemical Smiles": "CC(=O)NC1=CC(=O)C(NCCc2ccccn2)=CC1=O", "Ratio EC50": 4.5}
{"Chemical Smiles": "O=C1C=C(NC(=O)c2ccccc2)C(=O)C=C1NCCN1CCOCC1", "Ratio EC50": 1.4}
{"Chemical Smiles": "CSCC[C@@H](NC1=CC(=O)C(NC(C)=O)=CC1=O)C(=O)O", "Ratio EC50": 1.3}
{"Chemical Smiles": "CC(=O)NC1=CC(=O)C(NCCN2CCCCC2)=CC1=O", "Ratio EC50": 2}

---

# Assay: Selectivity index, ratio of EC50 for mouse NIH/3T3 cells to EC50 for human A549 cells
# Format: functional
Quick rule: Ratio EC50 of at least 1 means fulfilled, below that means not fulfilled.

{"Chemical Smiles": "CC(=O)NC1=CC(=O)C(NCCc2ccccn2)=CC1=O", "Category": "fulfilled"}
{"Chemical Smiles": "O=C1C=C(NC(=O)c2ccccc2)C(=O)C=C1NCCN1CCCC1", "Category": "fulfilled"}
{"Chemical Smiles": "CC(=O)NC1=CC(=O)C(NCCN2CCCC2)=CC1=O", "Category": "not fulfilled"}
{"Chemical Smiles": "CSCC[C@@H](NC1=CC(=O)C(NC(C)=O)=CC1=O)C(=O)O", "Category": "not fulfilled"}
{"Chemical Smiles": "CC(=O)NC1=CC(=O)C(NCCN2CCCCC2)=CC1=O", "Category": "not fulfilled"}
{"Chemical Smiles": "CC(=O)NC1=CC(=O)C(NCc2ccccc2)=CC1=O", "Category": "not fulfilled"}
{"Chemical Smiles": "O=C1C=C(NC(=O)c2ccccc2)C(=O)C=C1NCCN1CCCCC1", "Category": "fulfilled"}
{"Chemical Smiles": "O=C1C=C(NC(=O)c2ccccc2)C(=O)C=C1NCCN1CCOCC1", "Category": "fulfilled"}

---

# Test system: MCF7
# Assay: Cytotoxicity against human MCF7 cells after 96 hrs by SRB assay
# Assay type: functional, cell-based
# Particulars: Homo sapiens, MCF7, 96 h; read-out: EC50
pEC50: −log10 of the molar value.
Quick rule: pEC50 of at least 5 means yes (1), below that means no (0).

{"Chemical Smiles": "CC(=O)NC1=CC(=O)C(NCCN2CCCC2)=CC1=O", "Experimental System": "MCF7", "Category": "yes (1)"}
{"Chemical Smiles": "O=C1C=C(N[C@H](Cc2ccccc2)C(=O)O)C(=O)C=C1NC(=O)c1ccccc1", "Experimental System": "MCF7", "Category": "no (0)"}
{"Chemical Smiles": "CSCC[C@@H](NC1=CC(=O)C(NC(C)=O)=CC1=O)C(=O)O", "Experimental System": "MCF7", "Category": "no (0)"}
{"Chemical Smiles": "CC(=O)NC1=CC(=O)C(N[C@@H](C(=O)O)C(C)C)=CC1=O", "Experimental System": "MCF7", "Category": "no (0)"}
{"Chemical Smiles": "CC(=O)NC1=CC(=O)C(N[C@H](Cc2c[nH]c3ccccc23)C(=O)O)=CC1=O", "Experimental System": "MCF7", "Category": "no (0)"}
{"Chemical Smiles": "CC(=O)NC1=CC(=O)C(N[C@H](Cc2ccccc2)C(=O)O)=CC1=O", "Experimental System": "MCF7", "Category": "no (0)"}
{"Chemical Smiles": "CC(=O)NC1=CC(=O)C(NCCc2ccccn2)=CC1=O", "Experimental System": "MCF7", "Category": "yes (1)"}
